Experiment: qHTS assay to identify small molecule antagonists of the thyroid receptor (TR) signaling pathway (AID 743065); also: nearly all actives have a fitted effect of over 55% in size
Conditions: GH3.TRE-Luc, T3-stimulated luciferase inhibition, 23.5 h; series mostly up to 70.3 µM
Records with an inconclusive call do not appear. Activity calls are given as the source filed them. Calls follow the shape of the dose curve; as a rule, active = well fitted inhibition curve with a large enough effect in the repeat runs; inconclusive = weak or mixed curves; inactive = no such curve, though single readings can be large or run the other way.

CHEMICAL_STRUCTURE | outcome
CC(=O)Oc1cccc(O)c1 | inactive
COc1cc(OC)c2ccc(=O)oc2c1 | inactive
C1CCCCC1 | inactive

====

Target: Glucocorticoid receptor (Homo sapiens) (UniProt P04150)
Sequence (P04150 whole entry, looked up): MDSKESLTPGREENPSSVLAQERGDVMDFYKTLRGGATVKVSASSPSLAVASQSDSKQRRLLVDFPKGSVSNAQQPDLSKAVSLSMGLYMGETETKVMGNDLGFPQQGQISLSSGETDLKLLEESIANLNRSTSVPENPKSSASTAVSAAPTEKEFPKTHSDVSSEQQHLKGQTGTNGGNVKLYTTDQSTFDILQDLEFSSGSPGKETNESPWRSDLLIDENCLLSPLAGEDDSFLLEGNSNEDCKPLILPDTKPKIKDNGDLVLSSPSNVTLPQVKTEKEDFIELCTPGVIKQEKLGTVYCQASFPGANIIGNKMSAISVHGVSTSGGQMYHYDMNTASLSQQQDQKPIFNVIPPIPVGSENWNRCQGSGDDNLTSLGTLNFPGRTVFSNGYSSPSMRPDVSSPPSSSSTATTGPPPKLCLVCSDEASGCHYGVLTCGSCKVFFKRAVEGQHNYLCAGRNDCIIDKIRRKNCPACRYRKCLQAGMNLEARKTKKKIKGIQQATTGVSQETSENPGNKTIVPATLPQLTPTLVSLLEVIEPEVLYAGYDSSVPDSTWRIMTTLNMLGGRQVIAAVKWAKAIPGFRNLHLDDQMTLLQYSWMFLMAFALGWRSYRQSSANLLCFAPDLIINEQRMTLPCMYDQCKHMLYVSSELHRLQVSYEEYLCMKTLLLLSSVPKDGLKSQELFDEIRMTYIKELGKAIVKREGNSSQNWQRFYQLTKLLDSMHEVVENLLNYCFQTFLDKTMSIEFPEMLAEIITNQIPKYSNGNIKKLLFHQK
Test: qHTS assay to identify small molecule agonists of the glucocorticoid receptor (GR) signaling pathway (AID 720691)
Conditions: GR-bla HeLa, beta-lactamase reporter ratio, 18 h; series mostly up to 62.4 µM
Records with an inconclusive call do not appear. Active and inactive are the calls of the source. Calls follow the shape of the dose curve; as a rule, active = well fitted activation curve with a large enough effect in the signal ratio in the repeat runs (not every such curve was filed as active); inconclusive = weak or mixed curves, or effect the other way; inactive = no such curve, though single readings can be large or run the other way; the % refers to the signal ratio.
QUANTITY_NAME: outcome

CHEMICAL_STRUCTURE | TARGET_OR_TEST_SYSTEM | REPORTED_VALUE
OCC(CO)n1cnc(-c2ccc(F)cc2)c1-c1ccnc(Oc2ccccc2)n1 | Glucocorticoid receptor (Homo sapiens) (UniProt P04150) | inactive
COc1cc(NS(=O)(=O)c2ccc(N)cc2)nc(C)n1 | Glucocorticoid receptor (Homo sapiens) (UniProt P04150) | inactive
Cc1ccc2c(c1)CCCN2 | Glucocorticoid receptor (Homo sapiens) (UniProt P04150) | inactive

====

Target: Nuclear receptor subfamily 1 group I member 2 (Homo sapiens) (UniProt O75469)
Sequence (O75469 whole entry, looked up): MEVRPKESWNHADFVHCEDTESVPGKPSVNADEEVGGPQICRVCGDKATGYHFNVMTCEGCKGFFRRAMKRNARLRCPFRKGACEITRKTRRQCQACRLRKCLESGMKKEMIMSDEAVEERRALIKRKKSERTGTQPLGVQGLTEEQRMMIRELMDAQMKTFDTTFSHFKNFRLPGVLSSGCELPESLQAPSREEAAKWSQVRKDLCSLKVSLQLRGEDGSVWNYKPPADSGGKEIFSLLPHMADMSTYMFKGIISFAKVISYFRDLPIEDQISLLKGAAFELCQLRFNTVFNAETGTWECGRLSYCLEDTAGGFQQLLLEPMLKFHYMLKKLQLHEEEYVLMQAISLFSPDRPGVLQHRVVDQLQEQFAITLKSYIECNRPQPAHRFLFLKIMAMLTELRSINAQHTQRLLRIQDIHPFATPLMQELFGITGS
Assay: Human pregnane X receptor (PXR) small molecule agonists, qHTS assay (AID 1346982); also: nearly all actives have a fitted effect of over 35% in size
Conditions: PXR-Luc HepG2, CYP3A4 luciferase reporter, 24 h; series mostly up to 92.4 µM
Results filed as inconclusive are left out. Calls of active or inactive are those of the source. Calls follow the shape of the dose curve; as a rule, active = well fitted activation curve with a large enough effect in the repeat runs; inconclusive = weak or mixed curves; inactive = no such curve, though single readings can be large or run the other way.
I would appreciate it if you answered using one of these outcomes: true = active, false = inactive

Past entries and their recorded results:
MOLECULE | TARGET_OR_TEST_SYSTEM | LABEL_VALUE
C[C@@H]1C[C@H]2[C@@H]3CCC4=CC(=O)C=C[C@]4(C)[C@@]3(F)[C@@H](O)C[C@]2(C)[C@@]1(O)C(=O)COP(=O)(O)O | Nuclear receptor subfamily 1 group I member 2 (Homo sapiens) (UniProt O75469) | false
ClC1=C(Cl)C1(Cl)Cl | Nuclear receptor subfamily 1 group I member 2 (Homo sapiens) (UniProt O75469) | false
C=C(C)C(=O)OCCC(F)(F)C(F)(F)C(F)(F)C(F)(F)C(F)(F)C(F)(F)F | Nuclear receptor subfamily 1 group I member 2 (Homo sapiens) (UniProt O75469) | false
CC(=O)N[C@@H](Cc1ccc(O)cc1)C(=O)O | Nuclear receptor subfamily 1 group I member 2 (Homo sapiens) (UniProt O75469) | false
CCCCCCC(O)CCOC(C)=O (configuration not stated) | Nuclear receptor subfamily 1 group I member 2 (Homo sapiens) (UniProt O75469) | false

stdin: Test call, this molecule: FC(F)(F)C(F)(F)C(F)(F)C(F)(F)CCI
stdout: false

stdin: Dear colleague, could you share the recorded outcome for CCSC(=O)N(CC)CC when you have a moment?
stdout: false

stdin: Dear colleague, could you share the recorded outcome for CCN(CC)c1ccc(C(=C2C=CC(=[N+](CC)CC)C=C2)c2ccc(S(=O)(=O)O)cc2S(=O)(=O)[O-])cc1 when you have a moment?
stdout: false

stdin: Please let me know the test result on file for CNCc1ccc(NC(=O)c2c[nH]c3c2C(=O)CCC3)cc1 .
stdout: true

====

Assay: qHTS assay to identify small molecule antagonists of the thyroid receptor (TR) signaling pathway (AID 743065); also: nearly all actives have a fitted effect of over 55% in size
Conditions: GH3.TRE-Luc, T3-stimulated luciferase inhibition, 23.5 h; series mostly up to 70.3 µM
Results filed as inconclusive are left out. The source made the active and inactive calls. Calls follow the shape of the dose curve; as a rule, active = well fitted inhibition curve with a large enough effect in the repeat runs; inconclusive = weak or mixed curves; inactive = no such curve, though single readings can be large or run the other way.
Entry note: the call must match one of true (active), false (inactive)

The examples below pair each entry with its known result.
MOLECULE | LABEL_VALUE
CC(C)COC(=O)COc1cc(Cl)c(Cl)cc1Cl | false
O=C(O)CCS | false
O[C@@H](CNC[C@H](O)[C@H]1CCc2cc(F)ccc2O1)[C@@H]1CCc2cc(F)ccc2O1 | true
CC(=O)OCC(=O)[C@@]1(OC(C)=O)[C@@H](C)C[C@H]2[C@@H]3C[C@H](F)C4=CC(=O)C=C[C@]4(C)[C@@]3(F)[C@@H](O)C[C@@]21C | false
O=P(O)(O)Oc1ccccc1 | false
O=[N+]([O-])c1ccc2ncccc2c1 | false
N[C@@H](Cc1cc(I)c(O)c(I)c1)C(=O)O | false
CC12CC3CC(C)(C1)CC(N)(C3)C2 | true

stdin: Short answer needed: outcome of this test for CC(C)c1ccc(C(=O)N=C(N)N)cc1S(C)(=O)=O ?
stdout: false

====

Assay: A CellTox Green Cytotoxicity Assay to monitor cytotoxicity in HepG2 cells - 40 hour (AID 1224879); also: nearly all actives have a fitted effect of over 40% in size
Conditions: CellTox Green fluorescence; series mostly up to 76.8 µM
Records with an inconclusive call do not appear. Calls of active or inactive are those of the source. Calls follow the shape of the dose curve; as a rule, active = well fitted activation curve with a large enough effect in the repeat runs; inconclusive = weak or mixed curves; inactive = flat fitted curve, though single readings scatter.
A correct response names exactly one class from active, inactive

COMPOUND | LABEL_VALUE
BrC(Br)C(Br)Br | inactive
COc1ccc(-c2cc(=S)ss2)cc1 | inactive
CCCCCCCC/C=C/C(=O)O | inactive
CC(C)C(=O)OCCOc1ccccc1 | inactive
CCN(CC)CCNC(=O)c1cc(Cl)c(N)cc1OC | inactive
Cc1cc(CCCOc2c(C)cc(-c3noc(C(F)(F)F)n3)cc2C)on1 | inactive
CCOc1ncc(F)c(=O)[nH]1 | inactive
CC(C)CC(O)CC(C)C | inactive

stdin: What call does the record list for CCN(CC)CC(=O)Nc1c(C)cccc1C(=O)OC ?
stdout: inactive

stdin: Hi, do you know how CC1CCCO1 (configuration not stated) came out in this test?
stdout: inactive

stdin: Would you mind telling me which call this test gave CC1=C2[C@@H]([C@H](C)CC[C@H]2/C=C(\C)C(=O)O)[C@H](O)C1 ?
stdout: inactive

stdin: Hey, what did the test say about COC(C)(C)OC ?
stdout: inactive

stdin: // outcome(item) with item = O=C(c1ccccc1)C1CCC1
stdout: active

stdin: Short answer needed: outcome of this test for CC(C)(C)C(O)/C=C/c1ccc2c(c1)OCO2 (configuration not stated) ?
stdout: inactive

stdin: Call for entry O=C(Oc1ccccc1)c1ccc2ccccc2c1O :
stdout: inactive

stdin: Fill in: this test's call for Nc1nc(-c2ccc([N+](=O)[O-])cc2)cs1 is ___
stdout: inactive

stdin: Given CC(C)N=C=NC(C)C , state the outcome it received in this test.
stdout: inactive

stdin: Status in this test for O=C1OC(=O)c2c(Br)c(Br)c(Br)c(Br)c21 ?
stdout: inactive

stdin: Call for entry CCCCCCCCCCCCCCCCCC(=O)OCC(CC)CCCC (configuration not stated) :
stdout: inactive

stdin: Test call, this compound: CCOC(=O)C(C)O (configuration not stated)
stdout: inactive

stdin: Each compound tested received a call. Report the one for CC[C@H]1OC(=O)[C@H](C)[C@@H](O[C@H]2C[C@@](C)(OC)[C@@H](O)[C@H](C)O2)[C@H](C)[C@@H](O[C@@H]2O[C@H](C)C[C@H](N(C)C)[C@H]2O)[C@](C)(O)C[C@@H](C)C(=O)[C@H](C)[C@@H](O)[C@]1(C)O .
stdout: inactive

stdin: # outcome recorded in this test, key = COc1cc(NC(C)CCCN)c2ncccc2c1 (configuration not stated)
stdout: inactive

stdin: Status in this test for CC(=O)C(=O)CC(C)C ?
stdout: inactive

stdin: Entry CO[C@@H]1[C@@H](OC)[C@H](C)[C@@](O)(CC(=O)O)O[C@H]1[C@H](C)[C@H]1O[C@@]2(CC[C@@](C)([C@H]3CC[C@@](C)([C@@H]4O[C@@H]([C@H]5O[C@](C)(O)[C@H](C)C[C@@H]5C)C[C@@H]4OC4C[C@H](OC)[C@@H](OC)[C@H](C)O4)O3)O2)C[C@H](O)[C@H]1C (some centres not stated) : call = ?
stdout: active

stdin: What did the test return for COc1cc(NS(=O)(=O)c2ccc(N)cc2)nc(C)n1 ?
stdout: inactive

stdin: What outcome does the record of this test show for O=C1NC(=O)c2cccc3cccc1c23 ?
stdout: inactive

====

Test: qHTS assay for small molecule agonists of the p53 signaling pathway - cell viability (AID 651633);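 also: p53RE-bla HCT reporter cells with a stable beta-lactamase p53 reporter; nearly all actives have a fitted effect of over 30% in size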
Settings: p53RE-bla HCT-116 viability, ATP luminescence, 16 h; series mostly up to 83.3 µM
Excerpt: National Center for Advancing Translational Sciences [NCATS] NIH Chemical Genomics Center [NCGC] U.S. Environmental Protection Agency [EPA] National Institutes of Environmental Health Sciences [NIEHS] National Toxicology Program [NTP] U.S. Food and Drug Administration [FDA] p53, a tumor suppressor protein, is activated following cellular insult, including DNA damage and other cellular stresses. […] The activation of the reporter gene under culture conditions can be detected by fluorescence intensity. […]
Inconclusive results are not listed. Activity calls are given as the source filed them. The call rests on the fitted dose curve.
QUANTITY_NAME: outcome

Known results for compounds:
CHEMICAL_STRUCTURE | REPORTED_VALUE
O=S(=O)(O)CO | inactive
COc1ccc(N)c([N+](=O)[O-])c1 | inactive
Cc1cccc(C)c1NC(=O)c1cc(S(N)(=O)=O)c(Cl)cc1O | inactive
Cc1ccc2c(c1[N+](=O)[O-])C(=O)c1ccccc1C2=O | inactive

Consider the additional compound presented here.
stdin: Answer with the recorded outcome of CCN(CC)CCOC(=O)C(c1ccccc1)c1ccccc1 only.
stdout: inactive
